assay: Solubility in PBS; assay type: physicochemical
assay_metric: Solubility (µM)

{"columns": ["compound", "result_units", "measured_result"],
 "data": [
  ["CC(=O)N1CCC[C@]12CC=CCCCC1(CCCC=CCCCOC(=O)N3CC[C@@](C(=O)N[C@@H](Cc4ccsc4)C(=O)N[C@@H](Cc4csc5ccccc45)C(=O)N[C@@H](CO)C(N)=O)(C3)NC(=O)[C@H](CC(C)C)NC(=O)[C@H](Cc3ccccc3)NC(=O)[C@H](C)NC(=O)[C@H](C)NC(=O)[C@H](Cc3cccc(C(=O)O)c3)NC(=O)[C@H](CC(=O)O)NC1=O)NC(=O)[C@H](CC(C)(C)C)NC(=O)[C@H](CC(=O)O)NC2=O (some centres unmarked) [I-987]", "µM", 10],
  ["CC(=O)N1CCC[C@]12CC=CCCCC1(CCCC=CCCCOC(=O)N3CC[C@@](C(=O)N[C@@H](Cc4ccsc4)C(=O)N[C@@H](Cc4csc5ccccc45)C(=O)N[C@@H](CCC(N)=O)C(N)=O)(C3)NC(=O)[C@H](CC(C)C)NC(=O)[C@H](Cc3ccccc3)NC(=O)[C@H](C)NC(=O)[C@H](CCCCNC(=O)c3ccc(-n4cc(CNC(=O)c5ccc6c(c5)C5(OC6=O)c6ccc(O)cc6Oc6cc(O)ccc65)nn4)cc3)NC(=O)[C@H](CC(C)C)NC(=O)[C@H](CC(=O)O)NC1=O)NC(=O)[C@H](CC(C)(C)C)NC(=O)[C@H](CC(=O)O)NC2=O (some centres unmarked) [I-868]", "µM", 10]
]}

====

Biological target: full-length beta-Catenin (Uniprot ID P35222) (Homo sapiens, UniProt P35222)
Construct: 10 nM full-length beta-Catenin (Uniprot ID P35222)
Sequence (P35222 1-781): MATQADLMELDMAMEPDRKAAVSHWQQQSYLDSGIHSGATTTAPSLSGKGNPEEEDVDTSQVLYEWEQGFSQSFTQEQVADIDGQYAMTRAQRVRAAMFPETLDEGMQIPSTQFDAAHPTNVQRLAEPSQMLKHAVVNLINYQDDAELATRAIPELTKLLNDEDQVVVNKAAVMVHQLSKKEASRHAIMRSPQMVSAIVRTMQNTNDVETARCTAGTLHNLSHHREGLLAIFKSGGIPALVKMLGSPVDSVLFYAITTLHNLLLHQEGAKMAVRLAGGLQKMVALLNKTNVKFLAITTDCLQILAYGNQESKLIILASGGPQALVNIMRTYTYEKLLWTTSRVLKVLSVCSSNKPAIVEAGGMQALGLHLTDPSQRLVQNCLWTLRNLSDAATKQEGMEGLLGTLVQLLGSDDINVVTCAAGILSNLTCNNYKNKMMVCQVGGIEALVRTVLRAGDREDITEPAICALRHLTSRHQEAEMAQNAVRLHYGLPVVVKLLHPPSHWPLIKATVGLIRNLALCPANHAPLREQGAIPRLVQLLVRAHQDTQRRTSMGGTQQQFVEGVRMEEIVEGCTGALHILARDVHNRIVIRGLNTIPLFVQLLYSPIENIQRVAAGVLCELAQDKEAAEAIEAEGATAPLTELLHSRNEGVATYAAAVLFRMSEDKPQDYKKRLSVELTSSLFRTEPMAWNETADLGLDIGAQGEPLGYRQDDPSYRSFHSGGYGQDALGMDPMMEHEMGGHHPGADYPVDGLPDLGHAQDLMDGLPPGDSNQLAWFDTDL
Test: Fluorescence polarization IC50 (beta-catenin / 5FAM-TCF4 10-53 competition)
Assay type: binding
Conditions: fluorescence polarization; read-out: beta-Catenin FP IC50
assay_metric: IC50 (µM)

{"columns": ["molecule", "assay_metric", "measured_result"],
 "data": [
  ["CC(=O)N1CCC[C@]12CC=CCCCC1(CCCC=CCCCOC(=O)N3CC[C@@](C(=O)N[C@@H](Cc4ccsc4)C(=O)N[C@@H](Cc4csc5ccccc45)C(=O)N[C@@H](CCC(N)=O)C(N)=O)(C3)NC(=O)[C@H](CCC(=O)N3CCN(CCCN(C)C)CC3)NC(=O)[C@H](Cc3ccccc3)NC(=O)[C@H](C)NC(=O)[C@H](C)NC(=O)[C@H](CN(CC(=O)O)CC(F)(F)F)NC(=O)[C@H](CC(=O)O)NC1=O)NC(=O)[C@H](CC(C)(C)C)NC(=O)[C@H](CC(=O)O)NC2=O (some centres unmarked) [I-1936]", "IC50", 0.01],
  ["CC(=O)N1CCC[C@]12CC=CCCCC1(CCCC=CCCOC(=O)N3CCC(C(=O)N[C@@H](Cc4ccccc4C(F)(F)F)C(=O)N[C@@H](Cc4csc5ccccc45)C(=O)N[C@@H](C)C(N)=O)(CC3)NC(=O)[C@H](CC(C)C)NC(=O)[C@H](Cc3ccccc3)NC(=O)[C@H](C)NC(=O)[C@H](CCC(N)=O)NC(=O)[C@H](Cc3cccc(C(=O)O)c3)NC(=O)[C@H](CC(=O)O)NC1=O)NC(=O)[C@H](CC(C)(C)C)NC(=O)[C@H](CC(=O)O)NC2=O (some centres unmarked) [I-2584]", "IC50", 1.84]
]}
